test: gradient 5% acetonitrile 3 min, to 50% in 2 min, to 85% in 15 min, held 3 min, 100 µL/min; settings: column: Zorbax Extend-C18 2.1 x 50 mm; eluents: water / acetonitrile, 0.1% formic acid
# if value of RP-LC retention time reaches 700 s, tag Criterion met; if it stays below, tag Criterion not met

molecule | label-value
O=C(Cn1c(C2CC(=O)N(C3CCCCC3)C2)nc2ccccc21)N1CCOCC1 (stereo not given) | Criterion not met
N#Cc1ccc(S(=O)(=O)N2CC(c3nc(CCOCc4ccccc4)no3)C2)cc1 | Criterion met
COc1cccc(CCC(=O)N2CCn3cnnc3C2)c1 | Criterion not met
COc1cccc(-c2nnc(Cc3nc(-c4ccc(F)cc4)no3)o2)c1 | Criterion met
Cn1c(C(=O)N2CCN(c3ccccn3)CC2)cc2c(=O)oc3ccccc3c21 | Criterion not met
Cc1cnn(CC(=O)N2CCc3nn(C)c(=O)n3CC2)c1 | Criterion not met
CCN1CCN(C(=O)CN2C(=O)C3CCCCN3c3ccc(S(=O)(=O)N4CCCC4)cc32)CC1 (stereo not given) | Criterion not met
O=C(NC1CCCC1)c1cccnc1N1CCSCC1 | Criterion met

* * *

Recorded RP-LC retention time by entry
assay: gradient 5% acetonitrile 3 min, to 50% in 2 min, to 85% in 15 min, held 3 min, 100 µL/min; conditions: column: Zorbax Extend-C18 2.1 x 50 mm; eluents: water / acetonitrile, 0.1% formic acid

molecule | RP-LC retention time (s)
Cc1ccc(-c2csc(NC(=O)c3nc4ccccc4s3)n2)o1 | 1120
CNC(=O)N1CCC(N2C(=O)C3(CCCCC3)C2c2ccccc2)CC1 (stereo not given) | 783
Cc1nnc(N2CCCC(C(=O)NC3CCCCC3)C2)c2nn(-c3ccc(Cl)cc3)c(C)c12 (stereo not given) | 784
O=S(=O)(c1ccc(-c2noc(-c3ccccc3Br)n2)cc1)N1CCOCC1 | 1110
Cc1ccc(Cn2cc(-c3ccncc3)cc2C(=O)NCC2CCCO2)cc1 (stereo not given) | 654
CCOC(=O)c1sc(NC(C)=O)nc1-c1ccccc1 | 848
O=C(O)C1CCCN(c2cc(-n3ccnc3)ncn2)C1 (stereo not given) | 537
O=C(c1cccs1)N1CC(Oc2ccc(-c3nc(-c4ccccc4)no3)cc2)C1 | 1170
O=c1cc(-c2ccccc2)oc2c(O)c(O)ccc12 | 720
CCn1cc(S(=O)(=O)N2CCC(c3noc(COCCOC)n3)CC2)cn1 | 704

* * *

Measured RP-LC retention time, listed per entry for reference.
assay: gradient 5% acetonitrile 3 min, to 50% in 2 min, to 85% in 15 min, held 3 min, 100 µL/min; settings: column: Zorbax Extend-C18 2.1 x 50 mm; eluents: water / acetonitrile, 0.1% formic acid

smiles-entry | RP-LC retention time (s)
COC(=O)c1cnc(N2CCN(c3ccccn3)CC2)c2ccccc12 | 640
COc1ccc(-c2nc(Cn3ccn4nc(-c5ccccc5)cc4c3=O)c(C)o2)c(OC)c1 | 1030
Cc1nnc2c(=O)n(CC(=O)NCc3ccc(F)cc3Cl)c3cccnc3n12 | 710
O=C(CN1C(=O)COc2ccccc21)N1CCSCC1 | 712
CCCC(=O)N1CCC(C(=O)Nc2nnc(C)s2)CC1 | 590

* * *

# RP-LC retention time per entry
test: gradient 5% acetonitrile 3 min, to 50% in 2 min, to 85% in 15 min, held 3 min, 100 µL/min; details: column: Zorbax Extend-C18 2.1 x 50 mm; eluents: water / acetonitrile, 0.1% formic acid

compound | RP-LC retention time / s
O=C(NCc1ccc(F)cc1)N1CCC(c2noc(C3CC3)n2)C1 (stereo not given) | 751
CCCCOc1ccc(CNC(=O)C2CCCN(C(=O)c3[nH]c(C)c(C(=O)OC)c3C)C2)cc1 (stereo not given) | 930
CCN1C(=O)Cc2ccccc2C1C(=O)N(C)Cc1ccco1 (stereo not given) | 732
CN1C(=O)C2CCCCN2c2ccc(C(=O)N3CCC(Cc4ccccc4)CC3)cc21 (stereo not given) | 1110
Cc1ccc(C)c(NC(=O)Cn2c(N3CCCCC3)nc(C)cc2=O)c1 | 688

* * *

assay: gradient 5% acetonitrile 3 min, to 50% in 2 min, to 85% in 15 min, held 3 min, 100 µL/min; details: column: Zorbax Extend-C18 2.1 x 50 mm; eluents: water / acetonitrile, 0.1% formic acid
Below, each entry is listed alongside its reported RP-LC retention time.

molecule | RP-LC retention time [s]
Cc1cc(SCC(=O)Nc2nc(-c3ccccc3)cs2)nc(C)n1 | 841
CSc1ccc(CNC(=O)CCC(=O)N2Cc3cccn3-c3ccccc32)cc1 | 961
CCc1ccc(C(=O)N2CC3CN(S(=O)(=O)c4cccc(C)c4)CC(C2)O3)cc1 | 925
O=C(NCC1(O)CCCC1)C1CC(=O)N(c2ccccc2)C1 (stereo not given) | 624
COc1ccc(S(=O)(=O)N2CCCC(C(=O)NCC3CCCO3)C2)cc1C (stereo not given) | 778
Cn1ccc2cc(S(=O)(=O)N3CCC(C(=O)N4CCN(c5ccccc5)CC4)CC3)ccc21 | 963
Cc1noc(C)c1CNC(=O)c1ccc2[nH]ccc2c1 | 574
COc1cccc(-n2c(=O)c(C(=O)NC3CCCC3)c(O)c3cccnc32)c1 | 1210
CCOCC(=O)N1CCCC(c2nc(CNC(=O)C(C)C)cs2)C1 (stereo not given) | 625
CCCNC(=O)N(C)Cc1cccnc1OCC | 680
O=C(CCC1CCN(c2cc(NC3CC3)ncn2)CC1)N1CCN(c2ccccn2)CC1 | 536
O=C(Cn1c(=O)oc2ccc(C(=O)N3CCCC3)cc21)NCCCc1ccccc1 | 764
O=C(NCc1cc(F)cc(F)c1)c1sc2ncccc2c1-n1cccc1 | 1030
CCC(=O)NC1CCc2cccc(OC)c2C1 (stereo not given) | 821
Cc1nc2cc(-c3noc(-c4ccc(Cl)cc4)n3)ccc2o1 | 1210
O=c1ccc(-c2ccc3c(c2)OCO3)nn1Cc1nc(-c2cccc(Cl)c2)no1 | 1040
Cn1ncc2c3ccccc3n(CCCC(=O)NC3CCN(Cc4ccccc4)CC3)c2c1=O | 655
CCOc1ccccc1NS(=O)(=O)c1cc(-c2c(C)noc2NC(C)=O)ccc1OC | 798
CCC1CCCCN1CCCNC(=O)CCc1cc2ccc(C)cc2[nH]c1=O (stereo not given) | 596
Cc1cccc(OCc2nc(-c3ccc4c(c3)nnn4CCC(=O)N3CCCC3)no2)c1 | 923

* * *

Listed here are compounds together with their documented RP-LC retention time.
assay: gradient 5% acetonitrile 3 min, to 50% in 2 min, to 85% in 15 min, held 3 min, 100 µL/min; conditions: column: Zorbax Extend-C18 2.1 x 50 mm; eluents: water / acetonitrile, 0.1% formic acid
measure-name: RP-LC retention time (s)

compound | units-text | measured
Cc1cccc(-c2noc(-c3cccnc3N3CCN(c4ccccc4)CC3)n2)c1 | s | 1400
COC(=O)C1=CN(c2ccc(OC)c(Cl)c2)c2cc(F)ccc2S1(=O)=O | s | 914
COc1ccc(NC(=O)Nc2c(-c3ccccc3)nc3ccccn23)cc1OC | s | 612
Cc1ccc(C2=NC3(CCN(C(=O)c4ccc5c(c4)OCO5)CC3)ON2)cc1 | s | 939
O=C(CCC1CCCN(C(=O)Nc2ccc(Cl)cc2)C1)NCc1ccccc1 (centres undefined) | s | 884
CC(=O)N1CCC2(CC1)OC(=O)C(C)=C2C(=O)NCCCN(Cc1ccccc1)C(C)C | s | 580
CC(C)CN1CCn2cc(C(=O)NC3CCCCC3)nc2C1 | s | 600
CCOc1ccccc1CNC(=O)c1cc2c(=O)n(C)ccc2n1C | s | 713
CCN1CCN(C(=O)C2CCN(S(=O)(=O)c3c(C)nn(-c4ccccc4)c3C)CC2)CC1 | s | 621

* * *

compounds and their reported RP-LC retention time
assay: gradient 5% acetonitrile 3 min, to 50% in 2 min, to 85% in 15 min, held 3 min, 100 µL/min; settings: column: Zorbax Extend-C18 2.1 x 50 mm; eluents: water / acetonitrile, 0.1% formic acid

compound | RP-LC retention time / s
CCOc1cccc(CNc2ncc(C(=O)O)c(C)n2)c1 | 758
CCC(C)NC(=O)CC1CCN(C(=O)c2[nH]c(C)cc2C)CC1 (stereo not given) | 686
Cc1cc(NC(=O)c2cn(Cc3cccc(F)c3)nc2OCc2cccc(F)c2)no1 | 1040
CCCCN1C(=O)C(NC(=O)c2cccc(OC)c2)(C(F)(F)F)C(C(=O)OC)=C1C (stereo not given) | 988
COc1ccc(C2Cn3nnc(-c4nc(-c5ccc(C)cc5)no4)c3CO2)cc1 (stereo not given) | 1180
CCN1CCN(C(=O)c2cn(-c3ccc(-c4nc(C(C)(C)C)no4)cn3)cn2)CC1 | 653
COC(=O)CCc1sc(NC2CCCCC2)nc1-c1ccc(OC)cc1 | 856
O=C(Nc1nc2ccccc2n1CCN1CCOCC1)c1cccc([N+](=O)[O-])c1 | 581
O=S(=O)(c1cccn2c(SCc3ccncc3)nnc12)N1CCN(c2ccc(F)cc2)CC1 | 663
COCc1cc(=O)n(CC(=O)Nc2ccc(Br)cc2)c(N2CCOCC2)n1 | 892
CC(C)C(=O)Nc1cn(-c2ccc(C(=O)Nc3ccc4c(c3)OCCO4)cc2)cn1 | 808
Cc1ccc(C2CCCN2C(=O)c2cc(-c3ccco3)on2)cc1 (stereo not given) | 1020
O=C(NCC1CCCO1)c1ccc(NC(=O)C2CCC2)cc1N1CCCCC1 (stereo not given) | 617
Cc1ccc(S(=O)(=O)N2CCC(C(=O)N3CCCC3c3nc(-c4ccccc4C)no3)CC2)cc1 (stereo not given) | 1090
CCCNC(=O)N1CC(c2nc(-c3ccc(F)cc3)no2)C2(CCOCC2)C1 (stereo not given) | 793
CCOc1ccccc1C(=O)N1CCC2(CC1)NC(=O)c1ccc(Cl)cc1N2 | 790
CCNC(=O)c1n[nH]c2c1CN(C(=O)c1cccc(Br)c1)CC2 | 678
O=C(Nc1cnc(-c2ccccc2)nc1)c1ccccc1C(F)(F)F | 970
O=C(NCCc1csc2nc(-c3cccs3)nn12)c1ccc(Br)o1 | 769
CN1C(=O)COc2ccc(-c3csc(NC(=O)c4ccc(Br)cc4)n3)cc21 | 1040
